Molecular target: T1, human CD200R1 isoform a on CHOK1 cells (CHOK1/hCD200R1a) (human, UniProt Q8TD46 25-348)
T1 construct: also called CHOK1/CD200R1a
T1 sequence: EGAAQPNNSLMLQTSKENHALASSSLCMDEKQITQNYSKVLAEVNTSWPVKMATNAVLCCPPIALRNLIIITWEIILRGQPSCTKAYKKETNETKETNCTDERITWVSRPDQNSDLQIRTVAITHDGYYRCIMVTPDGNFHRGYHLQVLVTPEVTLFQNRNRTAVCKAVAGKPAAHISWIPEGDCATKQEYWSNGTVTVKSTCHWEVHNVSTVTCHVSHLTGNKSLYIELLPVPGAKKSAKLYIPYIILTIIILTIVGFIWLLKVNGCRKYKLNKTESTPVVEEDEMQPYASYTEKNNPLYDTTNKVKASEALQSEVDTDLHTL
Test: flow cytometry, CHOK1/hCD200R1a cells (FITC-Mean); table beside the curves, head without unit, x axis Log [Ab] (nM)
Would you kindly list pEC50 for each of these binders?
FYI, pEC50 means -log10 of a concentration in mol per litre.

For PR007630 (antibody, human IgG1, kappa, V domains shown, PTM variant of PR006839 (human IgG1)) VH: QVQLVESGGGVVQPGRSLRLSCAASGFTFSSYGFHWVRQAPGKGLEWLGIIWSDASNKYYADSVKGRFTISRDNSKNTLYLQMNSLRAEDTAVYYCARDRIVGEGFDYWGQGTLVTVSS VL: DIVMTQSPLSLPVTPGEPASISCRSSQSLLHRSGYNYLDWYLQKPGQSPQLLIYLGSYRASGVPDRFSGSGSGTDFTLKISRVEAEDVGVYYCMQGLQTMYTFGQGTKLEIKR the binder record lists pEC50 as 9.50

For PR002906 (antibody, V domains shown, also called recombinant IgG1 antibody of huDX182) VH: QVQLQESGPGLVKPSETLSLTCTVSGYTITSGYDWSWIRQPPGKGLEWIGYINYGGSTNYKPSLGSRVTISVDTSKNQFSLKLSSVTAADTAVYYCARYNEYKSYIYDWYFDFWGQGTLVTVSS VL: DIQMTQSPSSLSASVGDRVTITCKASKNIRSYLAWYQQKPGKAPKLLIYSGSTLHSGVPSRFSGSGSGTDFTLTISSLQPEDFATYYCQQHHEYPLTFGQGTKVEIKR the binder record lists pEC50 as 9.36

For PR007631 (antibody, human IgG1, kappa, V domains shown, PTM variant of PR006839 (human IgG1)) VH: QVQLVESGGGVVQPGRSLRLSCAASGFTFSSYGFHWVRQAPGKGLEWLGLIWSDARHKDYADSVKGRFTISRDNSKNTLYLQMNSLRAEDTAVYYCARDRIVGEGFDYWGQGTLVTVSS VL: DIVMTQSPLSLPVTPGEPASISCRSSQSLLHRSGYNYLDWYLQKPGQSPQLLIYLGSYRWSGVPDRFSGSGSGTDFTLKISRVEAEDVGVYYCMQGLQTMYTFGQGTKLEIKR the binder record lists pEC50 as 9.51
